tgt: Furin (108-574-Tev-Flag-His) enzyme (Homo sapiens, UniProt P09958)
Construct: Furin (108-574-Tev-Flag-His) enzyme was expressed and purified from CHO cells; TEV cleavage site (C); FLAG (C); His (C); made in house; host or cells: CHO cells
Sequence (P09958 108-574): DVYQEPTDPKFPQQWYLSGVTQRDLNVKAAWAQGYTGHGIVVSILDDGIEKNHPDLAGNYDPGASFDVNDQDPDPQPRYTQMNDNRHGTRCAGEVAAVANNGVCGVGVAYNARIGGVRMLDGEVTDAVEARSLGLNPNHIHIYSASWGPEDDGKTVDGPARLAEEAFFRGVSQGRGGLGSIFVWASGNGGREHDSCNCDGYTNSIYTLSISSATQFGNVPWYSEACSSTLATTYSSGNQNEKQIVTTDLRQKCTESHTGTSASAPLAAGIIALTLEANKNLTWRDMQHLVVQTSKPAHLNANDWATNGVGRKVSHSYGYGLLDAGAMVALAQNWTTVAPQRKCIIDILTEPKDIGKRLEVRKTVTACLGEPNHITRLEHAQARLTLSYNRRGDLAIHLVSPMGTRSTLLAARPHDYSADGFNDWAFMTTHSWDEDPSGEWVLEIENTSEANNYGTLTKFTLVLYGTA
assay info: Furin enzyme assay
Type: biochemical
Where a name gives a salt, the structure may show the parent alone.
measured metric: furin enzyme pIC50

compound	reported
O=C(O)CC1CCN(Cc2cc(Oc3cnc(N4CCNCC4)cn3)nc(-c3cc(Cl)cc(Cl)c3)c2)CC1 [Example 112]	8.9
CNCc1cc(Oc2ccc(N3CCNC(C)(C)C3)nc2)cc(-c2cc(Cl)cc(Cl)c2)c1 [Example 102, hydrochloride]	9.2
O=C(O)CC1CCN(Cc2cc(Oc3cnc(N4CCCNCC4)nc3)nc(-c3cc(Cl)cc(Cl)c3)c2)CC1 [Example 132]	8.8
CCOC(=O)NCC1CCN(Cc2cc(Oc3cnc(N4CCN(CCC(=O)O)CC4)nc3)nc(-c3cc(Cl)cc(Cl)c3)c2)CC1 [Example 267]	9.9
CN1CCN(c2ncc(Oc3cc(CN4CCC(CB(O)O)CC4)cc(-c4cc(Cl)cc(Cl)c4)n3)cn2)CC1 [Example 318, hydrochloride]	8.9

(a) CC(=O)NCC1CCN(Cc2cc(Oc3ncc(N)cn3)cc(-c3cc(Cl)cc(Cl)c3)c2)CC1 [Example 43]
(b) CC(=O)NCC1CCN(Cc2cc(Oc3ccc(N4CCN5C(=O)NCC5C4)nc3)cc(-c3cc(Cl)cc(Cl)c3)c2)CC1 (centres unmarked) [Example 107, hydrochloride]
**Q:** Hi, I'm comparing two records. Which one has the lower furin enzyme pIC50, a or b ? // output: label of the selected item
**A:** a
(a: 6, b: 9)
